Experimental protocol: qHTS of pediatric cancer cell lines to identify multiple opportunities for drug repurposing: Primary screen for BT-37 cells (AID 1347094)
Assay conditions: BT-37 viability, CellTiter-Glo luminescence, 48 h; series mostly up to 57.3 µM
Records with an inconclusive call do not appear. Calls of active or inactive are those of the source. Calls come from the whole dose curve; as a rule, active = well fitted cell-killing curve with a large enough effect; inconclusive = small, poorly fitted or top-dose-only effect; inactive = flat fitted curve, though single readings scatter.
Classes used: active, inactive

Smiles repr | Class name
Fc1ccc(C(c2ccc(F)cc2)N2CCN(CC=Cc3ccccc3)CC2)cc1 | inactive
COc1cc(CNC(=O)CCCCC=CC(C)C)ccc1O | inactive
CN1C(=O)C[C@H](C(=O)N[C@@H](Cc2cnc[nH]2)C(=O)N2CCC[C@@H]2C(N)=O)NC1=O | active
CC[C@H](C)C(=O)O[C@H]1C[C@H](O)C=C2C=C[C@H](C)[C@H](CC[C@@H](O)C[C@@H](O)CC(=O)O)[C@H]21 | inactive
O=C(NCCCCN1CCOCC1)c1cc2ccccc2o1 | inactive
Cc1ccc(C(=O)N(CCCN)[C@@H](c2oc3cc(Cl)ccc3c(=O)c2Cc2ccccc2)C(C)C)cc1 | active
NC(N)=Nc1nc(CSCCC(N)=NS(N)(=O)=O)cs1 | inactive
CCCCOCCOc1nc(-c2ccc(C(=O)O)c(F)c2)sc1C | inactive
Cc1ccc(S(=O)(=O)OCC(=O)Nc2ccc(C(=O)O)c(O)c2)cc1 | inactive
CCOC(=O)[C@H]1O[C@H]1C(=O)N[C@@H](CC(C)C)C(=O)NCCC(C)C | inactive
